Origin of values: PubChem BioAssay AID434994

# protocol-details: retest of yeast aging ROS inhibitors – cherry picked compounds, confirmation (AID 434994);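 further: cells aged with compound for 7 days at 30 degrees C before staining; 100% equals mean DHE fluorescence of all compound wells on the plate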
# measurement-setup: S. cerevisiae aging, superoxide DHE fluorescence; at 10 µM
This is one part of the list. Activity calls are given as the source filed them.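 How the source made its calls: active means superoxide signal below 65% of the plate average of sample wells; inactive means the rest.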
Outcome field: choose from 1.0 (active), 0.0 (inactive)

Enquiry: Dear colleague, could you share the recorded outcome for `CCn1c2ccccc2c2cc(CC(N)=O)ccc21` when you have a moment?
Return: 0.0

Enquiry: Recorded call for `Cc1ccc(-c2nn(C(C)(C)C)c3ncnc(N)c23)cc1` ?
Return: 1.0

Enquiry: Check the results log: what was the call for `CCN(CC)c1ccc(NC(=O)CN2CCN(c3ccccn3)CC2)cc1` ?
Return: 0.0

Enquiry: Status in this test for `Cc1cc2oc(C(=O)Nc3c(C)n(C)n(-c4ccccc4)c3=O)c(C)c2cc1Cl` ?
Return: 0.0
